Test system: HMPV clinical isolate TN/1501/A1
measurement_notes: HMPV antiviral assay Method-B (clinical isolate TN/1501/A1 in LLC-MK2 cells, ATP-Lite readout)
Assay type: cell-based, Human metapneumovirus (HMPV)
condition: human metapneumovirus, LLC-MK2, 144 h, hMPV WT1501 (clinical isolate TN/1501/A1), 6 days
Procedure: In vitro HMPV antiviral activity was evaluated using the clinical isolate TN/1501/A1 and LLC-MK2 cells (ATCC #CCL-7), an immortalized kidney epithelial cell line from Macaca mulatta. […] The test compounds were assessed in duplicate at a top concentration of 10 μM followed by 3-fold serial dilutions to give a total of 10 concentration points. […] Cells were counted and seeded at a density of 5,000 cells/well, 12.5 μL/well. […]

query_smiles: Cc1onc2ccc(C(=O)NC[C@](O)(c3cc4c(c(-c5ccc(F)cc5)n3)OC[C@]4(C)C(N)=O)C(F)(F)F)cc12
tested_system: HMPV clinical isolate TN/1501/A1
EC50: > 500 nM
--
query_smiles: C[C@]1(C(N)=O)COc2c1cc([C@@](O)(CNC(=O)c1cc(OC3CC3)c3nc(Cl)ccc3c1)C1CC1)nc2-c1ccc(F)cc1
tested_system: HMPV clinical isolate TN/1501/A1
EC50: > 500 nM
--
query_smiles: Cc1nc2c(OC3CC3)cc(C(=O)NC[C@](O)(c3cc4c(c(-c5ccc(F)cc5Cl)n3)OC[C@]4(C)C(N)=O)C(F)(F)F)cc2cc1Cl
tested_system: HMPV clinical isolate TN/1501/A1
EC50: < 500 nM
--
query_smiles: C[C@]1(C(N)=O)COc2c1cc([C@@](O)(CNC(=O)c1ccnc3cc[nH]c13)C(F)(F)F)nc2-c1ccc(F)cc1
tested_system: HMPV clinical isolate TN/1501/A1
EC50: > 500 nM
--
query_smiles: COc1cc(C(=O)NC[C@](O)(c2cc3c(c(-c4ccc5c(c4)OC(F)(F)O5)n2)OC[C@@]3(C(N)=O)C(F)F)C2CC2)cc2cn(C3CC3)nc12
tested_system: HMPV clinical isolate TN/1501/A1
EC50: < 500 nM
--
query_smiles: COc1cc(C(=O)NC[C@](O)(c2cc3c(c(-c4ccc(Cl)cc4F)n2)OC[C@]3(C)C(N)=O)C(F)(F)F)cc2cn(C3CC3)nc12
tested_system: HMPV clinical isolate TN/1501/A1
EC50: < 500 nM

###

Tested on: HMPV clinical isolate TN/1501/A1
measurement_notes: HMPV antiviral assay Method-B (clinical isolate TN/1501/A1 in LLC-MK2 cells, ATP-Lite readout)
Assay type: cell-based, Human metapneumovirus (HMPV)
condition: human metapneumovirus, LLC-MK2, 144 h, hMPV WT1501 (clinical isolate TN/1501/A1), 6 days
pEC50: −log10 of the molar value.
Entries annotated with measured pEC50

compound: Cc1cnc2c(OC(F)(F)F)cc(C(=O)NC[C@](O)(c3cc4c(c(-c5ccc(F)cc5)n3)OC[C@]4(C)C(N)=O)C3CC3)cc2c1 [Example 502]
pEC50: > 6.30

compound: C[C@]1(C(N)=O)COc2c1cc([C@@](O)(CNC(=O)c1ccc3nn(C4(F)CC4)cc3c1)C(F)(F)F)nc2-c1ccc(F)cc1 [Example 832]
pEC50: < 6.30

compound: COc1cc(C(=O)NC[C@](O)(c2cc3c(c(-c4cc(F)c(F)cc4Cl)n2)OC[C@]3(C)C(N)=O)C2CC2)cc2cc(Br)cnc12 [Example 660]
pEC50: > 6.30

compound: COc1cc(C(=O)NC[C@](O)(c2cc3c(c(-c4csc5c(Cl)cccc45)n2)OC[C@]3(C)C(N)=O)C(F)(F)F)cc2cn(C3CC3)nc12 [Example 937]
pEC50: < 6.30

compound: COc1cc(-c2nc([C@](O)(CNC(=O)c3cc(OC)c4nn(C5CC5)cc4c3)C(F)(F)F)cc3c2OC[C@]3(C)C(N)=O)ccc1F [Example 913]
pEC50: < 6.30

compound: COc1cc(C(=O)NC[C@](O)(c2cc3c(c(-c4ccc5c(c4)OC(F)(F)O5)n2)OC[C@@]3(C(N)=O)C(F)F)C2CC2)cc2cn(C3(F)CC3)nc12 [Example 1042]
pEC50: > 6.30

###

Test system: HMPV clinical isolate TN/1501/A1
measurement_notes: HMPV antiviral assay Method-B (clinical isolate TN/1501/A1 in LLC-MK2 cells, ATP-Lite readout)
Type: cell-based, Human metapneumovirus (HMPV)
condition: human metapneumovirus, LLC-MK2, 144 h, hMPV WT1501 (clinical isolate TN/1501/A1), 6 days
pEC50: −log10 of the molar value.
Entries annotated with measured pEC50
measurement_name: pEC50

query_smiles: COc1ccc(-c2nc([C@@](O)(CNC(=O)c3cc(OC)c4nn(C5CC5)cc4c3)C(F)(F)F)cc3c2OC[C@]3(C)C(N)=O)cc1
measurement_name: pEC50
reported_measurement: < 6.30

query_smiles: COc1cc(C(=O)NC[C@](O)(c2cc3c(c(-c4ccc(F)c(Cl)c4)n2)OC[C@]3(C)C(N)=O)C2CC2)cc2cn(C3(F)CC3)nc12
measurement_name: pEC50
reported_measurement: > 6.30

query_smiles: COc1cc(C(=O)NC[C@](O)(c2cc3c(c(-c4cc(Br)c(F)cc4F)n2)OC[C@]3(C)C(N)=O)C2CC2)cc2cc(Cl)c(C)nc12
measurement_name: pEC50
reported_measurement: > 6.30

query_smiles: COc1cc(C(=O)NC[C@](O)(c2cc3c(c(-c4ccc(F)c(Cl)c4)n2)OC[C@]3(C)C(N)=O)C2CC2)cc2sc(C)nc12
measurement_name: pEC50
reported_measurement: > 6.30

query_smiles: COc1cc(C(=O)NC[C@](O)(c2cc3c(c(-c4ccc(F)c(F)c4F)n2)OC[C@]3(C(N)=O)C(F)F)C(F)(F)F)cc2cn(C3CC3)nc12
measurement_name: pEC50
reported_measurement: < 6.30

query_smiles: COc1cc(C(=O)NC[C@](O)(c2cc3c(c(-c4ccc(F)c(Cl)c4)n2)OC[C@]3(C(N)=O)C(F)F)C(F)(F)F)cc2cn(C3CC3)nc12
measurement_name: pEC50
reported_measurement: < 6.30

###

Tested on: HMPV clinical isolate TN/1501/A1
measurement_notes: HMPV antiviral assay Method-B (clinical isolate TN/1501/A1 in LLC-MK2 cells, ATP-Lite readout)
Type: cell-based, Human metapneumovirus (HMPV)
condition: human metapneumovirus, LLC-MK2, 144 h, hMPV WT1501 (clinical isolate TN/1501/A1), 6 days
pEC50: −log10 of the molar value.
Entries annotated with measured pEC50

query_smiles: Cc1cnc2c(Cl)cc(C(=O)NC[C@](O)(c3cc4c(c(-c5ccc(F)cc5Cl)n3)OC[C@]4(C)C(N)=O)C(F)(F)F)cc2c1
pEC50: > 6.30

query_smiles: Cc1nc2c(OC3CC3)cc(C(=O)NC[C@](O)(c3cc4c(c(-c5ccc(F)cc5)n3)OC[C@]4(C)C(N)=O)C(F)(F)F)cc2cc1Cl
pEC50: > 6.30

query_smiles: COc1cc(C(=O)NC[C@](O)(c2nc(-c3ccc4c(c3)OC(F)(F)O4)c3c(c2F)[C@@](C)(C(N)=O)CO3)C2CC2)cc2cc(Br)cnc12
pEC50: > 6.30

query_smiles: COc1cc(C(=O)NC[C@](O)(c2cc3c(c(-c4cccc(OC(F)F)c4)n2)OC[C@]3(C)C(N)=O)C(F)(F)F)cc2cn(C3CC3)nc12
pEC50: < 6.30

query_smiles: COc1cc(C(=O)NC[C@](O)(c2cc3c(c(-c4ccc(F)c(Cl)c4)n2)OC[C@]3(CF)C(N)=O)C(F)(F)F)cc2cn(C3CC3)nc12
pEC50: > 6.30

query_smiles: COc1cc(C(=O)NC[C@](O)(c2cc3c(c(-c4ccc(Cl)c(F)c4F)n2)OC[C@]3(C)C(N)=O)C2CC2)cc2cn(C3(F)CC3)nc12
pEC50: > 6.30

query_smiles: COc1cc(C(=O)NC[C@](O)(c2cc3c(c(-c4ccc(F)c(F)c4Cl)n2)OC[C@]3(C)C(N)=O)C2CC2)cc2cc(C)cnc12
pEC50: > 6.30

query_smiles: COc1cc(C(=O)NC[C@](O)(c2cc3c(c(-c4ccc(F)cc4)n2)OC[C@]3(C)C(N)=O)C(F)(F)F)cc2cc(Br)c(Cl)nc12
pEC50: < 6.30

query_smiles: COc1cc(C(=O)NC[C@](O)(c2cc3c(c(-c4ccc(F)c(F)c4Cl)n2)OC[C@]3(C)C(N)=O)C(F)(F)F)cc2cc(Br)cnc12
pEC50: > 6.30

query_smiles: COc1cc(C(=O)NC[C@](O)(c2cc3c(c(-c4cc(Cl)c(F)cc4F)n2)OC[C@]3(C)C(N)=O)C(F)(F)F)cc2cn(C3(F)CC3)nc12
pEC50: > 6.30

query_smiles: C[C@]1(C(N)=O)COc2c1cc([C@@](O)(CNC(=O)c1cc(Cl)c3nn(C4CC4)cc3c1)C1CC1)nc2-c1ccc(C(F)(F)F)cc1
pEC50: < 6.30

query_smiles: COc1cc(C(=O)NC[C@](O)(c2cc3c(c(-c4ccc(OC(F)(F)F)c(Cl)c4)n2)OC[C@]3(C)C(N)=O)C(F)(F)F)cc2cn(C3CC3)nc12
pEC50: < 6.30

query_smiles: Cc1cnc2c(OC(F)F)cc(C(=O)NC[C@](O)(c3cc4c(c(-c5ccc6c(c5)OC(F)(F)O6)n3)OC[C@@]4(C(N)=O)C(F)F)C(F)(F)F)cc2c1
pEC50: > 6.30

query_smiles: COc1cc(C(=O)NC[C@](O)(c2cc3c(c(-c4cc(Cl)ccc4F)n2)OC[C@]3(C)C(N)=O)C(F)(F)F)cc2cn(C3CC3)nc12
pEC50: > 6.30

query_smiles: COc1cc(C(=O)NC[C@](O)(c2cc3c(c(-c4cc(Cl)c(F)cc4F)n2)OC[C@]3(C)C(N)=O)C2(F)CC2)cc2cn(C3CC3)nc12
pEC50: > 6.30

query_smiles: Cc1cnc2c(Cl)cc(C(=O)NC[C@](O)(c3cc4c(c(-c5cc(F)c(F)cc5F)n3)OC[C@]4(C)C(N)=O)C3CC3)cc2c1
pEC50: > 6.30

query_smiles: COc1cc(C(=O)NC[C@](O)(c2cc3c(c(-c4ccc(F)cc4)n2)OC[C@]3(C)C(N)=O)C(F)(F)F)cc2cc(C#N)cnc12
pEC50: < 6.30

query_smiles: COc1cc(C(=O)NC[C@](O)(c2cc3c(c(-c4cnc(C(F)(F)F)s4)n2)OC[C@]3(C)C(N)=O)C(F)(F)F)cc2cn(C3CC3)nc12
pEC50: < 6.30

query_smiles: C[C@]1(C(N)=O)COc2c1cc([C@@](O)(CNC(=O)c1cc(OCCF)c3nn(C4(F)CC4)cc3c1)C(F)(F)F)nc2-c1ccc(F)cc1
pEC50: < 6.30

query_smiles: COc1cc(C(=O)NC[C@](O)(c2cc3c(c(-c4ccc5c(c4)OC(F)(F)O5)n2)OC[C@]3(C)C(N)=O)C2CC2)cc2cn(C3CC3)nc12
pEC50: > 6.30

query_smiles: C[C@]1(C(N)=O)COc2c1cc([C@@](O)(CNC(=O)c1cc(OC3CC3)c3nc(C4CC4)cn3c1)C1CC1)nc2-c1ccc(F)c(Cl)c1F
pEC50: > 6.30

query_smiles: COc1cc(C(=O)NC[C@](O)(c2nc(-c3cc(Cl)c(F)cc3F)c3c(c2F)[C@@](C)(C(N)=O)CO3)C2CC2)cc2cn(C3CC3)nc12
pEC50: > 6.30

query_smiles: COc1cc(C(=O)NC[C@](O)(c2cc3c(c(-c4cnc(Cl)c(Cl)c4)n2)OC[C@]3(C)C(N)=O)C(F)(F)F)cc2cn(C3CC3)nc12
pEC50: < 6.30
